Assign IC50 to each entry below.
target: Dimer of Gag-Pol polyprotein [489-587] (Human immunodeficiency virus 1, UniProt P12497); construct: 489-587; assay: Protease Inhibition Assay; conditions: pH 5.5; 30 °C
Answers are plain numbers, in µM.

Take a look at these entries with their results.
{"COMPOUND STRUCTURE STRING": "C[C@H]1[C@@H](OC(=O)N[C@@H](Cc2ccccc2)[C@H](O)CN2C[C@H]3CCCC[C@H]3C[C@H]2C(=O)NC(C)(C)C)CCS1(=O)=O", "ASSAY RESULT": 0.0114}
{"COMPOUND STRUCTURE STRING": "C[C@H]1OCC[C@H]1OC(=O)N[C@@H](Cc1ccccc1)[C@H](O)CN1C[C@H]2CCCC[C@H]2C[C@H]1C(=O)NC(C)(C)C", "ASSAY RESULT": 0.169}
{"COMPOUND STRUCTURE STRING": "C[C@@H]1[C@H](OC(=O)N[C@@H](Cc2ccccc2)[C@H](O)CN2C[C@H]3CCCC[C@H]3C[C@H]2C(=O)NC(C)(C)C)CCS1(=O)=O", "ASSAY RESULT": 0.0223}

Please examine the following record next.
stdin: # assay system Dimer of Gag-Pol polyprotein [489-587] (Human immunodeficiency virus 1, UniProt P12497): give IC50 of C[C@@H]1OCC[C@@H]1OC(=O)N[C@@H](Cc1ccccc1)[C@H](O)CN1C[C@H]2CCCC[C@H]2C[C@H]1C(=O)NC(C)(C)C
stdout: 0.0524

Where do the numbers come from? From BindingDB's records for doi:10.1021/jm00034a016.
